The reported measurements were obtained from patent US12679877B2.

Test system: natriuretic peptide receptors (NPRA or NPRB)
Experiment: 2-point blood cGMP evaluation (2 and 6 hours) after 15 mg/Kg s.c., cGMP Direct Biotrak EIA
Format: in vivo, CD-1 mice
Conditions: 15 mg/Kg s.c. in mice (n=3); minus baseline 30 pmol/ml (n=12); 6 hours after dosing
No end group written: not given here. *: point of attachment. Stearoyl = CCCCCCCCCCCCCCCCCC(=O)*
assay metric: In vivo blood cGMP minus baseline, 6 hour (receptor depletion)

Identify the measured In vivo blood cGMP minus baseline, 6 hour (receptor depletion) of CH3(CH2)16CO-KKKKSLRRSSCFGGRMDRIGAQSGLGCNSFRY (Stearoyl-KKKKSLRRSSCFGGRMDRIGAQSGLGCNSFRY; not fully specified (bridges); cysteine pairing not given here; listed as Homo Sapiens) [SEQ ID NO. 35] for natriuretic peptide receptors (NPRA or NPRB).
12.79 pmol/mL

====

Test system: natriuretic peptide receptors (NPRA or NPRB)
Assay: 2-point blood cGMP evaluation (2 and 6 hours) after 15 mg/Kg s.c., cGMP Direct Biotrak EIA
Format: in vivo, CD-1 mice
Settings: 15 mg/Kg s.c. in mice (n=3); minus baseline 30 pmol/ml (n=12); 6 hours after dosing
No end group written: not given here. *: point of attachment. Stearoyl = CCCCCCCCCCCCCCCCCC(=O)*
assay metric: In vivo blood cGMP minus baseline, 6 hour (receptor depletion) (pmol/mL)
Dear colleague, please return just the value in pmol/mL, with no unit written.

I would be grateful if you could share the reported In vivo blood cGMP minus baseline, 6 hour (receptor depletion) for GGGGLSKGCFGLKLDRIGSMSGLGC (listed as Homo Sapiens) [SEQ ID NO. 60] .
16.85

I would be grateful if you could share the reported In vivo blood cGMP minus baseline, 6 hour (receptor depletion) for CH3(CH2)16COKKGGGGLSKGCFGLKLDRIGSMSGLGC (Stearoyl-KKGGGGLSKGCFGLKLDRIGSMSGLGC; not fully specified (bridges); printed as CH3(CH2)16COKKGGGGLSKGCFGLKLDRIGSMSGLGC; cysteine pairing not given here; listed as Homo Sapiens) [SEQ ID NO. 86] .
42.37

====

Field: In vivo blood cGMP minus baseline, 6 hour (receptor depletion). Provide a value for each of the substances that follow.
Tested on: natriuretic peptide receptors (NPRA or NPRB)
Assay: 2-point blood cGMP evaluation (2 and 6 hours) after 15 mg/Kg s.c., cGMP Direct Biotrak EIA
Type: in vivo, CD-1 mice
Conditions: 15 mg/Kg s.c. in mice (n=3); minus baseline 30 pmol/ml (n=12); 6 hours after dosing
No end group written: not given here. *: point of attachment. CH3(CH2)22CO = C24 acyl (CH3(CH2)22CO-), CCCCCCCCCCCCCCCCCCCCCCCC(=O)*; Stearoyl = CCCCCCCCCCCCCCCCCC(=O)*
Dear colleague, please return just the value in pmol/mL, with no unit written.

I would be grateful if you could share the reported In vivo blood cGMP minus baseline, 6 hour (receptor depletion) for KKKKGGGSLRRSSCFGGRMDRIGAQSGLGCNSFRY (listed as Homo Sapiens) [SEQ ID NO. 8] .
15.25

I would be grateful if you could share the reported In vivo blood cGMP minus baseline, 6 hour (receptor depletion) for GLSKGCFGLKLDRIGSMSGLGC [SEQ ID NO. 57, reference compound] .
24.55

I would be grateful if you could share the reported In vivo blood cGMP minus baseline, 6 hour (receptor depletion) for CH3(CH2)16COKKKKGGGGLSKGCFGLKLDRIGSMSGLGC (Stearoyl-KKKKGGGGLSKGCFGLKLDRIGSMSGLGC; not fully specified (bridges); printed as CH3(CH2)16COKKKKGGGGLSKGCFGLKLDRIGSMSG; cysteine pairing not given here; listed as Homo Sapiens) [SEQ ID NO. 72] .
368.29

I would be grateful if you could share the reported In vivo blood cGMP minus baseline, 6 hour (receptor depletion) for CH3(CH2)22COKKKKGGGSLRRSSCFGGRMDRIGAQSGLGCNSFRY ({CH3(CH2)22CO}-KKKKGGGSLRRSSCFGGRMDRIGAQSGLGCNSFRY; not fully specified (bridges); printed as CH3(CH2)22COKKKKGGGSLRRSSCFGGRMDRIGAQSGLGCNSFRY; cysteine pairing not given here; listed as Homo Sapiens) [SEQ ID NO. 95] .
245.6
